The measurements presented in this section are drawn from patent US20210332024A1.

Test: Pharmacokinetics, oral administration
Assay type: in vivo, Male C57Bl/6J mice
Conditions: male, C57Bl/6J, mouse, in vivo, po, 10 mg/kg, oral 10 mg/kg, individual mice No. 1-3
Method: Male C57Bl/6J mice received Pin1-3 intravenously (as a 0.2 mg/ml solution in 5/5/90 NMP/Solutol/saline) or orally (as a 1 mg/ml solution in 5/5/90 NMP/Solutol/saline). The intravenous dosage was 2 mg/kg and the oral dosage was 10 mg/kg.
Property: half-life (min)
Please respond with the number in min and leave the unit unwritten.

Input: May I ask what half-life has been recorded for CC(C)(C)CN(C(=O)CCl)C1CCS(=O)(=O)C1 (stereo not shown) [Pin1-3] ?
Output: 38.4

----------
Test: Pharmacokinetics, oral administration
Format: in vivo, Male C57Bl/6J mice
Settings: male, C57Bl/6J, mouse, in vivo, po, 10 mg/kg, oral 10 mg/kg, individual mice No. 1-3; read-out: AUCINF obs. (converted)
Property: AUC(0-inf) (ng·h/mL)
Please respond with the number in ng·h/mL and leave the unit unwritten.

Input: May I ask what AUC(0-inf) has been recorded for CC(C)(C)CN(C(=O)CCl)C1CCS(=O)(=O)C1 (stereo not shown) [Pin1-3] ?
Output: 9600

----------
Experiment: Thiol reactivity assay (DTNB)
Type: physicochemical
Conditions: 200 μM compound, pH 7.4, 37° C.
Protocol: 50 μM DTNB (dithionitrobenzoic acid) was incubated with 200 μM TCEP (tris(2-carboxytehyl)phosphine) in 20 mM sodium phosphate buffer (pH 7.4) with 150 mM NaCl, for 5 minutes at room temperature, in order to obtain TNB^2− (thionitrobenzoate dianion). 200 μM compounds were subsequently added to the TNB^2−, followed by immediate UV absorbance measurement at 412 nm (at 37° C.). The UV absorbance was acquired every 15 minutes for 7 hours. […] Compounds were measured in triplicates. […]
Labelling field: enter Condition met if recorded Reactivity Log k is less than -7. Enter Condition not met if it equals or exceeds that cut-off.

Input: Strictly below -7 in Reactivity Log k? CC(=O)c1ccc(-n2cc(CN(C(=O)CCl)C3CCS(=O)(=O)C3)nn2)cc1 (stereo not drawn) [Compound P1-02-B04]
Output: Condition not met

Input: Would you kindly repeat that for O=C(CCl)N(C1CC1)C1CCS(=O)(=O)C1 (stereo not drawn) ?
Output: Condition met

Input: Would you kindly repeat that for CC(=O)c1cccc(-n2cc(CN(C(=O)CCl)C3CCS(=O)(=O)C3)nn2)c1 (stereo not drawn) [Compound P1-03-D08] ?
Output: Condition not met

----------
The listing below reports log10(Ki) for compounds tested on GST-Pin1 (Homo sapiens, UniProt Q13526).
Sequence (Q13526 whole entry): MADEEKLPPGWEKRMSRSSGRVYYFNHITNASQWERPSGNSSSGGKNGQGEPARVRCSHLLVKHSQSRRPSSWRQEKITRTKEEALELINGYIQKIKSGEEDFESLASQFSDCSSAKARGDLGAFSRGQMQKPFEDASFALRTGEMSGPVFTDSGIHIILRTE
# values: log10(Ki), units nM

Input: May I ask what log10(Ki) has been recorded for O=C(CCl)N(CC1CC1)C1CCS(=O)(=O)C1 (stereo not drawn) ?
Output: 2.08

Input: Would you kindly repeat that for Cc1cccc(CN(C(=O)CCl)C2CCS(=O)(=O)C2)c1 (stereo not drawn) ?
Output: 2.29

Input: Would you kindly repeat that for O=C1C=CC(=O)c2c(O)cccc21 [Juglone, 5-hydroxy-1,4-naphthalenedione, reference compound] ?
Output: 3.24

Input: Would you kindly repeat that for CC(C)(C)CN(C(=O)CCl)C1CCS(=O)(=O)C1 (stereo not drawn) ?
Output: 2.04

Input: Would you kindly repeat that for O=C(CCl)N(CC1CCCCC1)C1CCS(=O)(=O)C1 (stereo not drawn) ?
Output: 1.66
